targetOrTestSystem: 4-hydroxy-tetrahydrodipicolinate synthase (Mycobacterium tuberculosis) (UniProt P9WP25)
methodSummary: Inhibition of Mycobacterium tuberculosis DHDPS at 20 mM
Assignment: determine reported inhibition for the given compounds.

Given the entry `COC(=O)[C@@H]1CS(=O)(=O)C[C@@H](C(=O)OC)N1` , report its measured inhibition.
7%

Please supply inhibition for each of the following items, keeping them in order.
1. COC(=O)[C@@H]1CSC[C@@H](C(=O)OC)N1
2. COC(=O)[C@@H]1C[S@+]([O-])C[C@H](C(=O)OC)N1
3. O=C(O)c1cc(=O)cc(C(=O)O)[nH]1
4. COC(=O)[C@@H]1CCC[C@H](C(=O)OC)N1
5. COC(=O)c1cc(=O)cc(C(=O)OC)[nH]1
6. COC(=O)[C@@H]1C[S+]([O-])C[C@@H](C(=O)OC)N1 (stereo partly drawn)

1: 0%; 2: 14%; 3: 73%; 4: 24%; 5: 84%; 6: 0%

---

Tested on: Staphylococcus aureus
methodSummary: Inhibition of methicillin-resistant Staphylococcus aureus DHDPS at 20 mM
measurementName: inhibition (%)
Give bare numbers, in %.

Here is how some compounds turned out for inhibition.
Given the entry `COC(=O)[C@@H]1CSC[C@H](C(=O)OC)N1` , report its measured inhibition.
0

Given the entry `COC(=O)[C@@H]1CS(=O)(=O)C[C@@H](C(=O)OC)N1` , report its measured inhibition.
0

Given the entry `COC(=O)[C@@H]1CS(=O)(=O)C[C@H](C(=O)OC)N1` , report its measured inhibition.
0

Given the entry `O=C(O)[C@@H]1CCC[C@H](C(=O)O)N1` , report its measured inhibition.
51

Given the entry COC(=O)[C@@H]1C[S+]([O-])C[C@@H](C(=O)OC)N1 (some centres not stated) , report its measured inhibition.
7

Please supply inhibition for each of the following items, keeping them in order.
1. O=C(O)c1cc(=O)cc(C(=O)O)[nH]1
2. O=C(O)c1cccc(C(=O)O)n1

1. 83
2. 67

---

Assignment: determine reported pKi for the given compounds.
methodSummary: Inhibition of Escherichia coli DHDPS
One number for each entry, as −log10 of the molar value.

Given the entry `N[C@@H](CC=O)C(=O)O` , report its measured pKi.
1.85

Would you kindly look at the next entry?
Given the entry CC(=O)C(=O)O [PYRUVATE] , report its measured pKi.
2.15

---

targetOrTestSystem: Dihydrodipicolinate synthase (Bacillus anthracis) (UniProt A0A6L7H340)
methodSummary: Inhibition of Bacillus anthracis DHDPS at 20 mM
Fulfilled means recorded inhibition is 8% or above; Not fulfilled means it is below 8%.

// below: answered molecules
Can `COC(=O)c1cc(=O)cc(C(=O)OC)[nH]1` be said to have inhibition at or above 8%?
Not fulfilled

Can COC(=O)[C@@H]1C[S+]([O-])C[C@@H](C(=O)OC)N1 (stereo partly drawn) be said to have inhibition at or above 8%?
Not fulfilled

Can `O=C(O)c1cccc(C(=O)O)n1` be said to have inhibition at or above 8%?
Fulfilled

Can `COC(=O)[C@@H]1CS(=O)(=O)C[C@H](C(=O)OC)N1` be said to have inhibition at or above 8%?
Fulfilled

Can `COC(=O)[C@@H]1CS(=O)(=O)C[C@@H](C(=O)OC)N1` be said to have inhibition at or above 8%?
Not fulfilled

Next:
Can `O=C(O)c1cc(=O)cc(C(=O)O)[nH]1` be said to have inhibition at or above 8%?
Not fulfilled

Can `O=C(O)[C@@H]1CCC[C@H](C(=O)O)N1` be said to have inhibition at or above 8%?
Fulfilled

Can `COC(=O)[C@@H]1C[S@+]([O-])C[C@H](C(=O)OC)N1` be said to have inhibition at or above 8%?
Fulfilled

Can `COC(=O)[C@@H]1CSC[C@H](C(=O)OC)N1` be said to have inhibition at or above 8%?
Fulfilled

Can `COC(=O)[C@@H]1CSC[C@@H](C(=O)OC)N1` be said to have inhibition at or above 8%?
Fulfilled

Can `COC(=O)c1cccc(C(=O)OC)n1` be said to have inhibition at or above 8%?
Fulfilled

Can `COC(=O)[C@@H]1CCC[C@H](C(=O)OC)N1` be said to have inhibition at or above 8%?
Fulfilled

---

System: Escherichia coli
methodSummary: Inhibition of Escherichia coli NAL at 20 mM
Assignment: determine reported inhibition for the given compounds.
Give bare numbers, in %.

Here is how some compounds turned out for inhibition.
Given the entry `COC(=O)[C@@H]1CS(=O)(=O)C[C@@H](C(=O)OC)N1` , report its measured inhibition.
0

Given the entry `COC(=O)[C@@H]1CS(=O)(=O)C[C@H](C(=O)OC)N1` , report its measured inhibition.
3

Given the entry `COC(=O)[C@@H]1C[S@+]([O-])C[C@H](C(=O)OC)N1` , report its measured inhibition.
38

Please supply inhibition for each of the following items, keeping them in order.
1. COC(=O)[C@@H]1CSC[C@H](C(=O)OC)N1
2. COC(=O)[C@@H]1C[S@@+]([O-])C[C@H](C(=O)OC)N1
3. COC(=O)[C@@H]1C[S+]([O-])C[C@@H](C(=O)OC)N1 (stereo partly drawn)
4. COC(=O)[C@@H]1CSC[C@@H](C(=O)OC)N1

1: 1; 2: 0; 3: 7; 4: 0

Please supply inhibition for each of the following items, keeping them in order.
1. COC(=O)c1cc(=O)cc(C(=O)OC)[nH]1
2. COC(=O)c1cccc(C(=O)OC)n1
3. O=C(O)c1cccc(C(=O)O)n1
4. O=C(O)c1cc(=O)cc(C(=O)O)[nH]1
5. COC(=O)[C@@H]1CCC[C@H](C(=O)OC)N1

64
0
1
27
18

Given the entry `O=C(O)[C@@H]1CCC[C@H](C(=O)O)N1` , report its measured inhibition.
21

---

Tested on: Escherichia coli
methodSummary: Inhibition of Escherichia coli DHDPS at 20 mM
measurementName: inhibition (%)
Give bare numbers, in %.

Here is how some compounds turned out for inhibition.
Given the entry `COC(=O)c1cccc(C(=O)OC)n1` , report its measured inhibition.
5

Given the entry `COC(=O)[C@@H]1C[S@@+]([O-])C[C@H](C(=O)OC)N1` , report its measured inhibition.
8

Given the entry `COC(=O)c1cc(=O)cc(C(=O)OC)[nH]1` , report its measured inhibition.
85

Given the entry `COC(=O)[C@@H]1CSC[C@H](C(=O)OC)N1` , report its measured inhibition.
35

Given the entry `COC(=O)[C@@H]1CSC[C@@H](C(=O)OC)N1` , report its measured inhibition.
12

Given the entry `COC(=O)[C@@H]1CS(=O)(=O)C[C@@H](C(=O)OC)N1` , report its measured inhibition.
14

Would you kindly look at the next entry?
Given the entry `O=C(O)c1cccc(C(=O)O)n1` , report its measured inhibition.
76

---

Tested on: Staphylococcus aureus
methodSummary: Inhibition of methicillin-resistant Staphylococcus aureus DHDPS at 20 mM
measurementName: inhibition

Given the entry `COC(=O)[C@@H]1CSC[C@@H](C(=O)OC)N1` , report its measured inhibition.
0%

Given the entry `COC(=O)c1cccc(C(=O)OC)n1` , report its measured inhibition.
0%

Please supply inhibition for each of the following items, keeping them in order.
1. COC(=O)[C@@H]1C[S@+]([O-])C[C@H](C(=O)OC)N1
2. COC(=O)[C@@H]1CCC[C@H](C(=O)OC)N1

["12%", "58%"]

Please supply inhibition for each of the following items, keeping them in order.
1. COC(=O)c1cc(=O)cc(C(=O)OC)[nH]1
2. COC(=O)[C@@H]1C[S@@+]([O-])C[C@H](C(=O)OC)N1

1. 88%
2. 10%

---

Test system: Escherichia coli
methodSummary: Inhibition of Escherichia coli DHDPS at 20 mM
measurementName: inhibition (%)
Numbers only, in %.

Here is how some compounds turned out for inhibition.
Given the entry COC(=O)[C@@H]1C[S+]([O-])C[C@@H](C(=O)OC)N1 (stereo partly specified) , report its measured inhibition.
0

Given the entry `COC(=O)[C@@H]1CS(=O)(=O)C[C@H](C(=O)OC)N1` , report its measured inhibition.
0

Please supply inhibition for each of the following items, keeping them in order.
1. O=C(O)[C@@H]1CCC[C@H](C(=O)O)N1
2. O=C(O)c1cc(=O)cc(C(=O)O)[nH]1
3. COC(=O)[C@@H]1C[S@+]([O-])C[C@H](C(=O)OC)N1
4. COC(=O)[C@@H]1CCC[C@H](C(=O)OC)N1

[49, 74, 20, 92]

---

targetOrTestSystem: 4-hydroxy-tetrahydrodipicolinate synthase (Mycobacterium tuberculosis) (UniProt P9WP25)
methodSummary: Inhibition of Mycobacterium tuberculosis DHDPS at 20 mM
Assignment: determine reported inhibition for the given molecules.
Numbers only, in %.

Given the entry `COC(=O)[C@@H]1C[S@@+]([O-])C[C@H](C(=O)OC)N1` , report its measured inhibition.
1

Please supply inhibition for each of the following items, keeping them in order.
1. COC(=O)[C@@H]1CS(=O)(=O)C[C@H](C(=O)OC)N1
2. O=C(O)c1cccc(C(=O)O)n1
3. O=C(O)[C@@H]1CCC[C@H](C(=O)O)N1
4. COC(=O)c1cccc(C(=O)OC)n1
5. COC(=O)[C@@H]1CSC[C@H](C(=O)OC)N1

1: 6; 2: 75; 3: 43; 4: 0; 5: 0

FYI, the data here is from ChEMBL document CHEMBL1143240.
